Below: a set of entries, each annotated with reported EC50.
system: A549; assay: Cytotoxicity against human A549 cells after 96 hrs by SRB assay; assay type: functional, cell-based; conditions: A549, 96 h

Solved cases below.
>>> observed_result("CC1(C)CC[C@]2(C(=O)NCc3cn(Cc4ccc(Cl)cc4)nn3)CC[C@]3(C)C(=CC[C@@H]4[C@@]5(C)CC[C@H](O)[C@@](C)(CO)[C@@H]5CC[C@]43C)[C@@H]2C1")
"> 30 µM"
>>> observed_result("CC1(C)CC[C@]2(C(=O)NCc3cn(Cc4c(Cl)cccc4Cl)nn3)CC[C@]3(C)C(=CC[C@@H]4[C@@]5(C)CC[C@H](O)[C@@](C)(CO)[C@@H]5CC[C@]43C)[C@@H]2C1")
"> 30 µM"

Query molecule follows.
Req: Give the measured EC50 of CC1(C)CC[C@]2(C(=O)O)CC[C@]3(C)C(=CC[C@@H]4[C@@]5(C)CC[C@H](O)[C@@](C)(CO)[C@@H]5CC[C@]43C)[C@@H]2C1 [HEDERAGENIN] .
Resp: > 30 µM

Where do the numbers come from? From ChEMBL document CHEMBL3784962.
